measurement notes: Caco-2 membrane permeability, improved method as used in the following Examples (96-well, 20 to 24 h preincubation)
Format: in vitro ADME
cond: human, Caco-2, Caco-2
Positions of bridges follow the written chain, without caps; N, C: chain ends. Non-standard residues stand in square brackets, D forms with d. Residues, ends and D or L forms follow the SMILES beside them. *: point of attachment. 3Pal(6-NMe2) = CN(C)c1ccc(C[C@H](N)C(=O)O)cn1; NMePhe(3-Cl) = CN[C@@H](Cc1cccc(Cl)c1)C(=O)O; NMeL = CN[C@@H](CC(C)C)C(=O)O; NMeV = CN[C@H](C(=O)O)C(C)C; NMeA = CN[C@@H](C)C(=O)O; Piperidide = C1CCN(*)CC1; NBuGly = CCCCNCC(=O)O
readout label: Papp A→B at 180 min (×10⁻⁶ cm/s)

>>> reported_measurement("CCCCN1CC(=O)N(C)[C@@H](C)C(=O)N[C@H](C(=O)N2CCCCC2)CC(=O)N(C)[C@@H](C(C)C)C(=O)N[C@@H](CC(C)C)C(=O)N(C)[C@@H](CC(C)C)C(=O)N(C)[C@@H](Cc2cccc(Cl)c2)C(=O)N[C@@H](Cc2ccc(N(C)C)nc2)C(=O)N(C)[C@@H](C)C(=O)N(C)[C@@H](CC(C)C)C(=O)N[C@@H]([C@@H](C)O)C1=O [pd399] ([NMeV]L[NMeL][NMePhe(3-Cl)][3Pal(6-NMe2)][NMeA][NMeL]T[NBuGly][NMeA]D-Piperidide; lactam N-11)")
1.5

----------
Overview of reported Papp A→B at 180 min across a group of compounds:
measurement notes: Caco-2 membrane permeability, improved method as used in the following Examples (96-well, 20 to 24 h preincubation)
Assay type: in vitro ADME
cond: human, Caco-2, Caco-2 (cm/sec)
Method: In the following Examples, membrane permeability was measured in accordance with the improved method established as described above. […] Each well was shaken at 5% CO2, 37° C., and 80 rpm, and 180 minutes after the initiation, the sample on the basal side was collected and the permeation amount was measured by LC/MS. The membrane permeability coefficient (Papp) was calculated from the permeation amount. […]
Positions of bridges follow the written chain, without caps; N, C: chain ends. Non-standard residues stand in square brackets, D forms with d. Residues, ends and D or L forms follow the SMILES beside them. *: point of attachment. Phe(4-CF3) = N[C@@H](Cc1ccc(C(F)(F)F)cc1)C(=O)O; NMeF = CN[C@@H](Cc1ccccc1)C(=O)O; NMeD = CN[C@@H](CC(=O)O)C(=O)O; NMeL = CN[C@@H](CC(C)C)C(=O)O; NMeA = CN[C@@H](C)C(=O)O; Piperidide = C1CCN(*)CC1; Sar = CNCC(=O)O; tBu = CC(C)(C)*
readout label: Papp A→B at 180 min (×10⁻⁶ cm/s)

>>> reported_measurement("CC(C)C[C@@H]1NC(=O)C[C@@H](C(=O)N2CCCCC2)N(C)C(=O)[C@H](Cc2ccc(C(F)(F)F)cc2)NC(=O)[C@H](CC(C)C)N(C)C(=O)CN(C)C(=O)[C@H]([C@@H](C)O)NC(=O)[C@H](CC(C)C)N(C)C(=O)[C@H](CC(C)C)N(C)C1=O [pd151] (L[NMeL][NMeL]T[Sar][NMeL][Phe(4-CF3)][NMeD]-Piperidide; lactam N-8)")
3.2
>>> reported_measurement("CC(C)C[C@H]1C(=O)N(C)[C@@H](Cc2ccccc2)C(=O)N(C)[C@@H](Cc2ccccc2)C(=O)N[C@@H]([C@@H](C)O)C(=O)N(C)[C@@H](C)C(=O)N(C)[C@@H](Cc2ccccc2)C(=O)N[C@H](C(=O)N2CCCCC2)CC(=O)N(C)[C@@H](C)C(=O)N(C)[C@@H](CC(C)C)C(=O)N(C)[C@@H](Cc2ccccc2)C(=O)N[C@@H](C)C(=O)N1C [pd232] ([NMeA][NMeL][NMeF]A[NMeL][NMeF][NMeF]T[NMeA][NMeF]D-Piperidide; lactam N-11)")
0.19
>>> reported_measurement("CC(C)C[C@@H]1NC(=O)[C@H](CC(C)C)N(C)C(=O)[C@H](CC(C)C)N(C)C(=O)CN(C)C(=O)[C@H]([C@@H](C)O)NC(=O)[C@H](CC(C)C)N(C)C(=O)[C@H](CC(C)C)N(C)C(=O)[C@H](Cc2ccc(C(F)(F)F)cc2)NC(=O)[C@@H](C(C)C)NC(=O)C[C@@H](C(=O)N2CCCCC2)NC1=O [pd148] ([dV][Phe(4-CF3)][NMeL][NMeL]T[Sar][NMeL][NMeL]LD-Piperidide; lactam N-10)")
1.1
>>> reported_measurement("CC(C)C[C@@H]1NC(=O)[C@H]([C@@H](C)O)NC(=O)[C@H](CC(C)C)N(C)C(=O)C[C@@H](C(=O)N2CCCCC2)NC(=O)[C@H](COC(C)(C)C)NC(=O)[C@H](Cc2ccccc2)NC(=O)[C@H](C)N(C)C(=O)[C@H](Cc2ccccc2)NC(=O)CN(C)C(=O)[C@H](Cc2ccccc2)N(C)C(=O)[C@H](Cc2ccccc2)N(C)C1=O [pd245] ([NMeL]TL[NMeF][NMeF][Sar]F[NMeA]FS(tBu)D-Piperidide; lactam N-11)")
0.019
>>> reported_measurement("CC(C)C[C@@H]1NC(=O)[C@H](CC(C)C)N(C)C(=O)[C@@H](C)NC(=O)C[C@@H](C(=O)N2CCCCC2)N(C)C(=O)[C@H](CC(C)C)N(C)C(=O)[C@H]([C@@H](C)O)NC(=O)[C@H](CC(C)C)N(C)C(=O)[C@H](Cc2ccc(C(F)(F)F)cc2)NC1=O [pd149] ([dA][NMeL]L[Phe(4-CF3)][NMeL]T[NMeL][NMeD]-Piperidide; lactam N-8)")
1.7

----------
Overview of reported Papp A→B at 180 min across a group of compounds:
measurement notes: Caco-2 membrane permeability, improved method as used in the following Examples (96-well, 20 to 24 h preincubation)
Type: in vitro ADME
cond: human, Caco-2, Caco-2
Starred links: 1 amine or outer side, 2 acyl side, 3 side chain; linkers in the order of their positions; H or OH if unused. Positions of bridges follow the written chain, without caps; N, C: chain ends. Non-standard residues stand in square brackets, D forms with d. Residues, ends and D or L forms follow the SMILES beside them. *: point of attachment. X4 = O=C([C@@H]1C[C@@H](N2CCC(F)(F)CC2)CN1[*:1])[*:2]; 3Pal(6-NMe2) = CN(C)c1ccc(C[C@H](N)C(=O)O)cn1; NMePhe(3-Cl) = CN[C@@H](Cc1cccc(Cl)c1)C(=O)O; hNle(7,7-F2) = N[C@@H](CCCCC(F)F)C(=O)O; Gly(N-(CH2)2OEt) = CCOCCNCC(=O)O; NMeF = CN[C@@H](Cc1ccccc1)C(=O)O; NMeGABA = CN(CCCC(=O)[*:2])[*:1]; NMeL = CN[C@@H](CC(C)C)C(=O)O; NMeV = CN[C@H](C(=O)O)C(C)C; NMeAbu = CC[C@H](NC)C(=O)O; NMeA = CN[C@@H](C)C(=O)O; Piperidide = C1CCN(*)CC1; Abu = CC[C@H](N)C(=O)O; NBuGly = CCCCNCC(=O)O; Sar = CNCC(=O)O; tBu = CC(C)(C)*
readout label: Papp A→B at 180 min (×10⁻⁶ cm/s)

>>> reported_measurement("CCCCN1CC(=O)N(C)[C@@H](CC(C)C)C(=O)N[C@H](C(=O)N2CCCCC2)CC(=O)N(C)[C@@H](CC)C(=O)N[C@@H](CC(C)C)C(=O)N(C)[C@@H](CC(C)C)C(=O)N(C)[C@@H](Cc2ccccc2)C(=O)N[C@@H](CC)C(=O)N(C)[C@@H](Cc2ccccc2)C(=O)N(CCOCC)CC(=O)N[C@@H]([C@@H](C)O)C1=O [pd419] ([NMeAbu]L[NMeL][NMeF][Abu][NMeF][Gly(N-(CH2)2OEt)]T[NBuGly][NMeL]D-Piperidide; lactam N-11)")
2.3
>>> reported_measurement("CC[C@H](C)[C@@H]1NC(=O)[C@H](CC(C)C)N(C)C(=O)CCCN(C)C(=O)C[C@@H](C(=O)N2CCCCC2)NC(=O)[C@H](CC(C)C)N(C)C(=O)[C@H](C)N(C)C(=O)[C@H]([C@@H](C)O)NC(=O)[C@H](CC(C)C)N(C)C(=O)[C@H](CCCCC(F)F)NC(=O)[C@H](Cc2ccccc2)N(C)C(=O)[C@H](Cc2ccccc2)N(C)C1=O [pd333] ([NMeGABA][NMeL]I[NMeF][NMeF][hNle(7,7-F2)][NMeL]T[NMeA][NMeL]D-Piperidide; lactam N-11)")
1.3
>>> reported_measurement("CC(C)C[C@H]1C(=O)N[C@@H](COC(C)(C)C)C(=O)N(C)[C@@H](Cc2ccccc2)C(=O)N(C)[C@@H](CC(C)C)C(=O)N[C@H](C(=O)N2CCCCC2)CC(=O)N2C[C@H](N3CCC(F)(F)CC3)C[C@H]2C(=O)N(C)[C@@H](Cc2cccc(Cl)c2)C(=O)N[C@@H](C(C)C)C(=O)N(C)[C@@H](C(C)C)C(=O)N[C@@H]([C@@H](C)O)C(=O)N(C)CC(=O)N1C [pd458] ([X4][NMePhe(3-Cl)]V[NMeV]T[Sar][NMeL]S(tBu)[NMeF][NMeL]D-Piperidide; lactam N-11)")
1.2
>>> reported_measurement("CC(C)C[C@@H]1NC(=O)[C@H](CC(C)C)N(C)C(=O)CCCN(C)C(=O)C[C@@H](C(=O)N2CCCCC2)NC(=O)[C@H](CC(C)C)N(C)C(=O)[C@H](CC(C)C)N(C)C(=O)[C@H]([C@@H](C)O)NC(=O)[C@H](CC(C)C)N(C)C(=O)[C@H](Cc2ccc(N(C)C)nc2)NC(=O)[C@H](Cc2ccccc2)N(C)C(=O)[C@H](CC(C)C)N(C)C1=O [pd397] ([NMeGABA][NMeL]L[NMeL][NMeF][3Pal(6-NMe2)][NMeL]T[NMeL][NMeL]D-Piperidide; lactam N-11)")
1.2
>>> reported_measurement("CC(C)C[C@@H]1NC(=O)[C@H](Cc2ccccc2)N(C)C(=O)[C@H](C)N(C)C(=O)C[C@@H](C(=O)N2CCCCC2)NC(=O)[C@H](CC(C)C)N(C)C(=O)[C@H](CC(C)C)N(C)C(=O)[C@H](COC(C)(C)C)NC(=O)[C@H](CC(C)C)N(C)C(=O)[C@H](C)N(C)C(=O)[C@H](CCC(=O)N(C)C)NC(=O)[C@H](CC(C)C)N(C)C1=O [pd440] ([NMeA][NMeF]L[NMeL]E(NMe2)[NMeA][NMeL]S(tBu)[NMeL][NMeL]D-Piperidide; lactam N-11)")
4
>>> reported_measurement("CC[C@H](C)[C@H]1C(=O)N[C@@H]([C@@H](C)O)C(=O)N(C)CC(=O)N(C)[C@@H](CC(C)C)C(=O)N[C@H](C(=O)N2CCCCC2)CC(=O)N(C)[C@@H](C)C(=O)NC(COc2cccc(Cl)c2)C(=O)N(C)[C@@H](CC(C)C)C(=O)N(C)[C@@H](Cc2ccccc2)C(=O)N[C@@H](C)C(=O)N(C)[C@@H](Cc2ccccc2)C(=O)N1C (stereo partly drawn) [pd344]")
1.3
